The binders listed here are annotated with their FACS MFI.
# Assayed system: T1, human CD24 (human, UniProt P25063 27-59, heavily glycosylated, GPI-anchored (as described in the background))
# T1 construct: whole, on cells; Target of all cell-based FACS assays; also called hCD24; Cluster of differentiation 24
# T1 chain (looked up): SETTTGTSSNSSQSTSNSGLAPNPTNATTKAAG
# Protocol description: FACS, 293F-hCD24 cells
Measured metric: FACS MFI

Binder	Reported measurement
110D4G4 (antibody, V domains shown, mouse monoclonal antibody; also called mAb-110D4G4) VH: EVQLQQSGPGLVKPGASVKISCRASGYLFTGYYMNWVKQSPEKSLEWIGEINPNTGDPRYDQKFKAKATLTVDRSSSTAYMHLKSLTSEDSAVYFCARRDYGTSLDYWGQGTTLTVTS VL: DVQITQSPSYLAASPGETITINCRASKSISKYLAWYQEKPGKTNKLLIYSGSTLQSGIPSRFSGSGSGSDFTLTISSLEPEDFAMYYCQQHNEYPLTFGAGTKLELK	56500
SN3 (antibody, V domains shown) VH: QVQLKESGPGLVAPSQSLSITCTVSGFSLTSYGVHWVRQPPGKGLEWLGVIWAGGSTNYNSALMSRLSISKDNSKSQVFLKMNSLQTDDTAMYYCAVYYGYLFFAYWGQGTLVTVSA VL: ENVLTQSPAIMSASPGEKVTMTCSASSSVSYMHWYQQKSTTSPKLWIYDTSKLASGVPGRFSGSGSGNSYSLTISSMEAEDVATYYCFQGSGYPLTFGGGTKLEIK	6560
58F10-1F6 (antibody, V domains shown, mouse monoclonal antibody) VH: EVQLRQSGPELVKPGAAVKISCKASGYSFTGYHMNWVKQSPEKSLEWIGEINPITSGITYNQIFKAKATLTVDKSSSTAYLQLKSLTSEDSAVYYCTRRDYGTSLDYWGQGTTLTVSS VL: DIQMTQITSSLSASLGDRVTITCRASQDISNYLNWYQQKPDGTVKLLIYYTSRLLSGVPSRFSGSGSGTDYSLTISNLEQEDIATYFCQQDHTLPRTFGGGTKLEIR	7420
71A4F12 (antibody, V domains shown, mouse monoclonal antibody) VH: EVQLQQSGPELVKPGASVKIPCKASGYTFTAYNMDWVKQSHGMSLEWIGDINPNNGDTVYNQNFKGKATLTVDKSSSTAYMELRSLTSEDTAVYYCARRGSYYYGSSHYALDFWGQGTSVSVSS VL: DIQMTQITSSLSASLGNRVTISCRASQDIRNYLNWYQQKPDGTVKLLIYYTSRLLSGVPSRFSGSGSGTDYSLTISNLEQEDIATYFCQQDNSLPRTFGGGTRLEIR	7350
